Origin of values: PubChem BioAssay AID1159580

- methodDescription: chemical genetic growth profiling, strain panel (AID 1159580)
- conditionSet: S. cerevisiae deletion strains, growth OD, locus YKL190W, strain CNB1, stronger effect = lower value
Screen size: about 5,500 compounds; about 2,000 (36%) were called active. Another 18% or so got no clear call; they are omitted. This is one part of the list.
As shown below, each of these compounds has a reported normalized growth value.
measuredQuantity: normalized growth

compound: CN(C)CCCN1c2ccccc2Sc2ccc(Cl)cc21
measuredQuantity: normalized growth
reportedResult: 0.949
//
compound: CS(=O)(=O)Nc1ccc([N+](=O)[O-])cc1Oc1ccccc1
measuredQuantity: normalized growth
reportedResult: 0.983
//
compound: OC(c1ccccc1)(c1ccccc1)c1ccncc1
measuredQuantity: normalized growth
reportedResult: 0.996
//
compound: CN(C)CCCN1c2ccccc2Sc2ccccc21
measuredQuantity: normalized growth
reportedResult: 1
//
compound: CC(C)CC1NC(=O)CNC1=O (configuration not stated)
measuredQuantity: normalized growth
reportedResult: 0.981
//
compound: COc1ccc2cc(CCC(C)=O)ccc2c1
measuredQuantity: normalized growth
reportedResult: 0.972
//
compound: CN(C)C1C(=O)C(C(N)=O)=C(O)C2(O)C(=O)C3=C(O)c4c(O)ccc(Cl)c4C(C)(O)C3CC12 (configuration not stated)
measuredQuantity: normalized growth
reportedResult: 1
//
compound: N/C(Cc1cccc2ccccc12)=N/O
measuredQuantity: normalized growth
reportedResult: 1.02
//
compound: CN(C)CCCN1c2ccccc2Sc2ccc(C(F)(F)F)cc21
measuredQuantity: normalized growth
reportedResult: 0.995
//
compound: CC(=O)Nc1ccc(S(=O)(=O)Nc2c(C)n(C)n(-c3ccccc3)c2=O)cc1
measuredQuantity: normalized growth
reportedResult: 1.01
//
compound: COC(=O)C/C(N)=C(\C#N)C(=O)OC
measuredQuantity: normalized growth
reportedResult: 0.986
//
compound: CN(C)CCCN1c2ccccc2CCc2ccc(Cl)cc21
measuredQuantity: normalized growth
reportedResult: 0.953

* * *

- methodDescription: chemical genetic growth profiling, strain panel (AID 1159580)
- conditionSet: S. cerevisiae deletion strains, growth OD, locus YPL055C, strain LGE1, stronger effect = lower value
Out of some 5,500 compounds screened, about 2,000 (36%) were called active. Roughly 18% stayed inconclusive and do not appear here. This is one part of the list.
Under this convention, condition met denotes normalized growth strictly below 1 and condition not met denotes normalized growth at or above 1.

molecule: Cc1cccc(C)c1N=C1SCCS1
classAssignment: condition met
//
molecule: Cc1ccc(-c2nn[nH]n2)cc1Cl
classAssignment: condition met
//
molecule: CC(C)CCCC(C)C1CCC2C3CC(=O)[C@H]4C[C@@H](O)CC[C@]4(C)C3CC[C@]12C (stereo not given in full)
classAssignment: condition not met

* * *

As shown below, each of these compounds has a reported normalized growth value.
- methodDescription: chemical genetic growth profiling, strain panel (AID 1159580)
- conditionSet: S. cerevisiae deletion strains, growth OD, locus YDL101C, strain DUN1, stronger effect = lower value
Hit rate of the full screen: of about 5,500 compounds, about 2,000 (36%) were called active. Not shown: some 18% with an inconclusive outcome. The other results are listed elsewhere or left out.

compound: CCN(CC)CCOC(=O)C(c1ccccc1)C1CCCCC1 (configuration not stated)
normalized growth: 0.983
--
compound: Brc1ccc(-c2csc(-c3ccncc3)n2)cc1
normalized growth: 0.888
--
compound: CCCc1cc(=O)oc2c1c(C)nn2-c1ccccc1
normalized growth: 0.954
--
compound: O=C1c2cccc3c(Sc4ccccc4)ccc(c23)C(=O)N1NCCO
normalized growth: 0.916
--
compound: C[C@H](CCC(=O)O)[C@H]1CCC2C3C(=O)CC4CC(=O)CC[C@]4(C)C3CC(=O)[C@@]21C (some centres not stated)
normalized growth: 1.01
--
compound: OC(c1ccccc1)(c1ccccc1)c1ccncc1
normalized growth: 1
--
compound: NC(=O)NC(=O)Cc1ccccc1
normalized growth: 1
--
compound: CCCc1cc(=O)oc2cc(OCC(=O)OCC)ccc12
normalized growth: 0.945
--
compound: CCCCCCc1cc2c(C)cc(=O)oc2cc1O
normalized growth: 1.02
--
compound: O=S(=O)(Oc1ccc(-c2csnn2)cc1)c1ccccc1Cl
normalized growth: 0.956
--
compound: Cc1nn(-c2cccc(Cl)c2)c2oc(=O)cc(C(F)(F)F)c12
normalized growth: 0.961
--
compound: c1ccc(-c2nc(-c3cccs3)cs2)cc1
normalized growth: 0.988
